- Tested on: MCF7
- Method Notes: Antiproliferative activity against human MCF7 cells after 48 hrs by sulforhodamine B assay
- Assay type: functional, cell-based
- Measurement Parameters: MCF7, 48 h
Recorded IC50 by entry
Give just the numeric value; µM need not be written.

Here's what some known entries look like.
[
  {
    "Molecule": "CC1=C2[C@H]3OC(=O)C4(C[C@@H](c5cccc6ccccc56)N(c5ccccc5)O4)[C@@H]3CC[C@@]2(C)C=CC1=O (stereo partly specified)",
    "Tested On": "MCF7",
    "Unit Tag": "µM",
    "IC50": 82
  },
  {
    "Molecule": "CC1=C2[C@H]3OC(=O)C4(CC(c5ccccc5)=NO4)[C@@H]3CC[C@@]2(C)C=CC1=O (stereo partly specified)",
    "Tested On": "MCF7",
    "Unit Tag": "µM",
    "IC50": 100
  },
  {
    "Molecule": "CC1=C2[C@H]3OC(=O)C4(C[C@H](c5cccc6ccccc56)N(c5ccccc5)O4)[C@@H]3CC[C@@]2(C)C=CC1=O (stereo partly specified)",
    "Tested On": "MCF7",
    "Unit Tag": "µM",
    "IC50": 14
  },
  {
    "Molecule": "COc1cccc2c1C(=O)c1c(O)c3c(c(O)c1C2=O)C[C@@](O)(C(=O)CO)C[C@@H]3O[C@H]1C[C@H](N)[C@H](O)[C@H](C)O1",
    "Tested On": "MCF7",
    "Unit Tag": "µM",
    "IC50": 0.5
  },
  {
    "Molecule": "COc1ccc([C@H]2CC3(ON2c2ccccc2)C(=O)O[C@@H]2C4=C(C)C(=O)C=C[C@]4(C)CC[C@H]23)cc1Br (stereo partly specified)",
    "Tested On": "MCF7",
    "Unit Tag": "µM",
    "IC50": 100
  }
]

Consider the additional molecule presented here.
Prompt: Field request: IC50 | item: COc1ccc(C2=NOC3(C2)C(=O)O[C@@H]2C4=C(C)C(=O)C=C[C@]4(C)CC[C@H]23)cc1Br (stereo partly specified)
Response: 100
